Tested on: HCT116
experimental_protocol: Anti-cancer screen (MTT), HCT116
Format: cell-based
run_parameters: Homo sapiens, HCT-116, 48 hours with compound, tested at 0.01-100 µM
Please provide measured GI50 for the entries that follow.
Your answer should be a plain number; it is taken to be in µM.

For record O=C(Cc1csc(NC(=O)c2ccc(CNC(=O)OCc3cccs3)cc2)n1)NO the listed GI50 is 14

For record O=C(NCc1ccc(C(=O)NO)cc1)OCc1nc2ccccc2[nH]1 the listed GI50 is 4.5

For record CC(=O)N(O)C(=O)Cc1csc(NC(=O)OCc2ccc(Br)s2)n1 the listed GI50 is 30

For record O=C(NCc1ccc(C(=O)NO)cc1)OCc1nccs1 the listed GI50 is 0.02

For record Nc1ccccc1NC(=O)c1ccc(CNC(=O)OCc2ccsc2)cc1 the listed GI50 is 2

For record O=C(CCCNC(=O)Cc1csc(NC(=O)OCc2nc3ccccc3s2)n1)NO the listed GI50 is 51

For record N/C(=N/O)c1ccc(NC(=O)OCc2cccs2)cc1 the listed GI50 is 80

For record CC(=O)N(O)C(=O)Cc1csc(NC(=O)OCc2ccsc2)n1 the listed GI50 is 60

* * *

Tested on: NCIH460, HCT116, MDAMB-231/U 251
experimental_protocol: Anti-cancer screen, mean GI50 over the cell lines
Format: cell-based
run_parameters: in µM
outcome_measure: Mean GI50
Keep it simple and answer with nothing but the number.

Simply: CON(C)C(=O)Cc1csc(NC(=O)OCc2cccnc2)n1 , NCIH460, HCT116, MDAMB-231/U 251, Mean GI50 = 45

Simply: O=C(Cc1csc(NC(=O)OCc2ccncc2)n1)NO , NCIH460, HCT116, MDAMB-231/U 251, Mean GI50 = 13

Simply: O=C(NCc1ccc(C(=O)NO)cc1)OCC1COc2ccccc2O1 (centres unmarked) , NCIH460, HCT116, MDAMB-231/U 251, Mean GI50 = 7

Simply: O=C(NCc1ccc(C(=O)Nc2nnc(C3CC3)s2)cc1)OCc1nc2ccccc2s1 , NCIH460, HCT116, MDAMB-231/U 251, Mean GI50 = 2.93

Simply: O=C(Cc1csc(NC(=O)OCc2cccnc2)n1)Nc1ccccc1O , NCIH460, HCT116, MDAMB-231/U 251, Mean GI50 = 14.2

Simply: O=C(NCc1ccc(C(=O)NO)cc1)OCCSc1nc2ccccc2s1 , NCIH460, HCT116, MDAMB-231/U 251, Mean GI50 = 7.3

Simply: O=C(NCc1ccc(C(=O)Nc2nnc(C3CC3)s2)cc1)OCc1nccs1 , NCIH460, HCT116, MDAMB-231/U 251, Mean GI50 = 17.67

* * *

Test system: NCIH460, HCT116, MDAMB-231/U 251
experimental_protocol: Anti-cancer screen, mean GI50 over the cell lines
Assay type: cell-based
run_parameters: in µM
outcome_measure: Mean GI50

For record O=C(NCc1ccc(C(=O)NOCc2ccccc2)cc1)OCc1cccs1 the listed Mean GI50 is >100

For record Nc1ccccc1NC(=O)Cc1csc(NC(=O)OCc2cccnc2)n1 the listed Mean GI50 is >100

For record CN(O)C(=O)c1ccc(CNC(=O)OCc2c(F)cc(F)cc2F)cc1 the listed Mean GI50 is >100
